The measured values listed here are drawn from patent US8168667B2.

- Tgt: human androgen receptor (hAR) (Homo sapiens)
- Sequence (P10275 whole entry): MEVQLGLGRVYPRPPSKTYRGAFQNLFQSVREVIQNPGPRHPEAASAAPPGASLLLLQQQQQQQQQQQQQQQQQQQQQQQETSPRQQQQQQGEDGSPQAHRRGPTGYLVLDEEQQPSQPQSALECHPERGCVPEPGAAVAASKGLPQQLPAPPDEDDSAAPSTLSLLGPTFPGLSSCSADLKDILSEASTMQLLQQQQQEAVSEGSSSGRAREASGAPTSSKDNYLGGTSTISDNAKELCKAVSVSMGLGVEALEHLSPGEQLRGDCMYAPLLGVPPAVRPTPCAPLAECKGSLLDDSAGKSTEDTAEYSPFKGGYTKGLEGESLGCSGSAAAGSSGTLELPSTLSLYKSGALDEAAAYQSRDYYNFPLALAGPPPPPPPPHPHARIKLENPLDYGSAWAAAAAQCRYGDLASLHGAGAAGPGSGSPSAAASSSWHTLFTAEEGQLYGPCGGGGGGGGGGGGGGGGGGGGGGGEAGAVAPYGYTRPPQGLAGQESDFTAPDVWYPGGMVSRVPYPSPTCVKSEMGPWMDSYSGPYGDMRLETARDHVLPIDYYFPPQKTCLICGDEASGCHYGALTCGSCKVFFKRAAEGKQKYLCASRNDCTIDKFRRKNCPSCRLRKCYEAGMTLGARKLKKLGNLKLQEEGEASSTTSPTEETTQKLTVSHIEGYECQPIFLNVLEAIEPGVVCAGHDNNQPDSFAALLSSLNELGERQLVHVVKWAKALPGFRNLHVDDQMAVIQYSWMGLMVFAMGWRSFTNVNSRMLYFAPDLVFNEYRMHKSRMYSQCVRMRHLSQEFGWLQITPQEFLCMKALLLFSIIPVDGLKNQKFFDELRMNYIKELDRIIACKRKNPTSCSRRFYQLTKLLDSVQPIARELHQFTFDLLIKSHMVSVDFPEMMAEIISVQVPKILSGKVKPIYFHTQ
- Run Description: Functional response test: hAR transactivation (luciferase reporter) in HALP2 cells
- Format: cell-based
- Experimental Setup: agonism; HALP2 cells (HeLa, hAR + ARE-luciferase), 20 hours at 37° C.
Assay Readout: EC50 (nM)

molecule="CN1C(=O)N(c2ccc(F)c(C(F)(F)F)c2)C(=O)C1c1ccc(O)cc1 (stereo not shown)" tgt="human androgen receptor (hAR) (Homo sapiens)" assay_readout=EC50 val=60
molecule="CC1(c2ccc(O)cc2)C(=O)N(c2ccc(Cl)c(Cl)c2)C(=O)N1CCO (stereo not shown)" tgt="human androgen receptor (hAR) (Homo sapiens)" assay_readout=EC50 val=30
molecule="Cc1cc(Br)ccc1N1C(=O)N(C)C(C)(c2ccc(O)cc2)C1=O (stereo not shown)" tgt="human androgen receptor (hAR) (Homo sapiens)" assay_readout=EC50 val=13.4
molecule="N#CCCN1C(=O)N(c2ccc(Cl)c(Cl)c2)C(=O)C1c1ccc(O)cc1 (stereo not shown)" tgt="human androgen receptor (hAR) (Homo sapiens)" assay_readout=EC50 val=42.4
molecule="CC1(c2ccc(O)cc2)C(=O)N(c2ccc(Cl)c(Cl)c2)C(=O)N1CC#CCO (stereo not shown)" tgt="human androgen receptor (hAR) (Homo sapiens)" assay_readout=EC50 val=12.3
molecule="CC1(c2ccc(O)cc2)C(=O)N(c2ccc(Cl)c(Cl)c2)C(=S)N1CCC#N (stereo not shown)" tgt="human androgen receptor (hAR) (Homo sapiens)" assay_readout=EC50 val=8
molecule="C#CCN1C(=O)N(c2ccc(F)c(C(F)(F)F)c2)C(=O)C1c1ccc(O)cc1 (stereo not shown)" tgt="human androgen receptor (hAR) (Homo sapiens)" assay_readout=EC50 val=42.4
molecule="COc1cccc(C2C(=O)N(c3ccc(Cl)c(Cl)c3)C(=O)N2C)c1 (stereo not shown)" tgt="human androgen receptor (hAR) (Homo sapiens)" assay_readout=EC50 val=42.4
molecule="O=C1C(c2ccc(O)cc2)N(CCO)C(=O)N1c1ccc(Cl)c(Cl)c1 (stereo not shown)" tgt="human androgen receptor (hAR) (Homo sapiens)" assay_readout=EC50 val=44.7
molecule="C=CCN1C(=O)N(c2ccc(F)c(Cl)c2)C(=O)C1c1ccc(O)cc1 (stereo not shown)" tgt="human androgen receptor (hAR) (Homo sapiens)" assay_readout=EC50 val=69.3
molecule="O=C1C(c2ccc(O)cc2)N(CCCCO)C(=O)N1c1ccc(F)c(F)c1 (stereo not shown)" tgt="human androgen receptor (hAR) (Homo sapiens)" assay_readout=EC50 val=600
molecule="N#CCCN1C(=O)N(c2cccc(C(F)(F)F)c2)C(=O)C1c1ccc(O)cc1 (stereo not shown)" tgt="human androgen receptor (hAR) (Homo sapiens)" assay_readout=EC50 val=245
molecule="N#CCN1C(=O)N(c2ccc(F)c(C(F)(F)F)c2)C(=O)C1c1ccc(O)cc1 (stereo not shown)" tgt="human androgen receptor (hAR) (Homo sapiens)" assay_readout=EC50 val=300
molecule="COc1ccc(C2(CF)C(=O)N(c3ccc(Cl)c(Cl)c3)C(=O)N2C)cc1 (stereo not shown)" tgt="human androgen receptor (hAR) (Homo sapiens)" assay_readout=EC50 val=10
molecule="O=C1C(c2ccc(O)cc2)N(Cc2ccsc2)C(=S)N1c1cccc(Cl)c1Cl (stereo not shown)" tgt="human androgen receptor (hAR) (Homo sapiens)" assay_readout=EC50 val=2000
molecule="O=C1C(c2ccc(O)cc2)N(CCCCO)C(=O)N1c1ccc(Cl)c(Cl)c1 (stereo not shown)" tgt="human androgen receptor (hAR) (Homo sapiens)" assay_readout=EC50 val=69.3
molecule="CCOC(=O)CCN1C(=O)N(c2cccc(C(F)(F)F)c2)C(=O)C1c1ccc(O)cc1 (stereo not shown)" tgt="human androgen receptor (hAR) (Homo sapiens)" assay_readout=EC50 val=80
molecule="CCOCCCN1C(=O)N(c2cccc(C(F)(F)F)c2)C(=O)C1c1ccc(O)cc1 (stereo not shown)" tgt="human androgen receptor (hAR) (Homo sapiens)" assay_readout=EC50 val=200
molecule="O=C1C(c2ccc(O)cc2)N(Cc2ccc3c(c2)OCO3)C(=O)N1c1ccc(F)c(Cl)c1 (stereo not shown)" tgt="human androgen receptor (hAR) (Homo sapiens)" assay_readout=EC50 val=49
molecule="O=C1C(c2ccc(O)cc2)N(Cc2ccsc2)C(=O)N1c1ccc(F)c(Cl)c1 (stereo not shown)" tgt="human androgen receptor (hAR) (Homo sapiens)" assay_readout=EC50 val=15
molecule="O=C1C(c2ccc(O)cc2)N(Cc2ccc3c(c2)OCO3)C(=O)N1c1ccc(Cl)c(C(F)(F)F)c1 (stereo not shown)" tgt="human androgen receptor (hAR) (Homo sapiens)" assay_readout=EC50 val=245
molecule="Cc1cc(Cl)ccc1N1C(=O)N(C)C(C)(c2ccc(O)cc2)C1=O (stereo not shown)" tgt="human androgen receptor (hAR) (Homo sapiens)" assay_readout=EC50 val=24.5
molecule="CN1C(=O)N(c2ccc(Cl)c3ccccc23)C(=O)C1(C)c1ccc(O)cc1 (stereo not shown)" tgt="human androgen receptor (hAR) (Homo sapiens)" assay_readout=EC50 val=300
molecule="CCOC(=O)CCN1C(=O)N(c2ccc(F)c(C(F)(F)F)c2)C(=O)C1c1ccc(O)cc1 (stereo not shown)" tgt="human androgen receptor (hAR) (Homo sapiens)" assay_readout=EC50 val=94.9
molecule="CN(C)CCN1C(=O)N(c2ccc(Cl)c(Cl)c2)C(=O)C1c1ccc(O)cc1 (stereo not shown)" tgt="human androgen receptor (hAR) (Homo sapiens)" assay_readout=EC50 val=141
molecule="N#CCN1C(=O)N(c2ccc(F)c(Cl)c2)C(=O)C1c1ccc(O)cc1 (stereo not shown)" tgt="human androgen receptor (hAR) (Homo sapiens)" assay_readout=EC50 val=632
molecule="C=CCOCC1(c2ccc(OC)cc2)C(=O)N(c2ccc(Cl)c(Cl)c2)C(=O)N1C (stereo not shown)" tgt="human androgen receptor (hAR) (Homo sapiens)" assay_readout=EC50 val=600
molecule="CCOC(=O)CCN1C(=O)N(c2ccc(Cl)c(Cl)c2)C(=O)C1c1ccc(O)cc1 (stereo not shown)" tgt="human androgen receptor (hAR) (Homo sapiens)" assay_readout=EC50 val=11.3
molecule="C#CCN1C(=O)N(c2ccc(Cl)c(Cl)c2)C(=O)C1c1ccc(O)cc1 (stereo not shown)" tgt="human androgen receptor (hAR) (Homo sapiens)" assay_readout=EC50 val=24.5
molecule="CN1C(=O)N(c2ccc(Cl)c(Cl)c2Cl)C(=O)C1(C)c1ccc(O)cc1 (stereo not shown)" tgt="human androgen receptor (hAR) (Homo sapiens)" assay_readout=EC50 val=15
molecule="O=C1C(c2ccc(O)cc2)N(CCCCO)C(=O)N1c1ccc(Cl)c(C(F)(F)F)c1 (stereo not shown)" tgt="human androgen receptor (hAR) (Homo sapiens)" assay_readout=EC50 val=122
molecule="CN1C(=O)N(c2ccc(Cl)c(Cl)c2)C(=O)C1c1ccc(O)cc1 (stereo not shown)" tgt="human androgen receptor (hAR) (Homo sapiens)" assay_readout=EC50 val=4.44
molecule="C=CCN1C(=O)N(c2ccc(Cl)c(Cl)c2)C(=O)C1c1ccc(O)cc1 (stereo not shown)" tgt="human androgen receptor (hAR) (Homo sapiens)" assay_readout=EC50 val=6.84
molecule="O=C1C(c2ccc(O)cc2)N(Cc2ccsc2)C(=O)N1c1ccc(Cl)c(Cl)c1 (stereo not shown)" tgt="human androgen receptor (hAR) (Homo sapiens)" assay_readout=EC50 val=16.4
